METHOD DESCRIPTION: Plasma protein binding in baboon
Assay type: ADME, cell-free
TEST CONDITIONS: papio hamadryas, read-out: PPB (converted)
REPORTED PROPERTY: fraction unbound
Numbers only.

Some solved entries appear below for comparison.
COMPOUND | fraction unbound
NNC(=O)c1ccncc1 [ISONIAZID] | 0.0537
NC(=O)c1cnccn1 [PYRAZINAMIDE] | 0.0868

Kindly consider the entry below.
Query :: Please look up its fraction unbound: CO[C@H]1/C=C/O[C@@]2(C)Oc3c(C)c(O)c4c(O)c(c(/C=N/N5CCN(C)CC5)c(O)c4c3C2=O)NC(=O)/C(C)=C\C=C\[C@H](C)[C@H](O)[C@@H](C)[C@@H](O)[C@@H](C)[C@H](OC(C)=O)[C@@H]1C [RIFAMPIN]
Result :: 0.727

====

METHOD DESCRIPTION: Biodistribution in baboon heart at 170 mg, iv after 60 mins
Assay type: ADME, organism-based
TEST CONDITIONS: papio hamadryas, read-out: Drug uptake
REPORTED PROPERTY: concentration at 1 h (ng/mL)
One number for each entry, in ng/mL.

Query :: Value lookup for concentration at 1 h; key = CO[C@H]1/C=C/O[C@@]2(C)Oc3c(C)c(O)c4cc(c(/C=N/N5CCN([11CH3])CC5)c(O)c4c3C2=O)NC(=O)/C(C)=C\C=C\C(C)[C@H](O)[C@@H](C)[C@@H](O)[C@@H](C)[C@H](OC(C)=O)[C@@H]1C (stereo partly specified)
Result :: 1930

====

METHOD DESCRIPTION: Biodistribution in baboon heart at 85 mg, iv after 90 mins
Type: ADME, organism-based
TEST CONDITIONS: papio hamadryas, read-out: Drug uptake
REPORTED PROPERTY: concentration at 1.5 h (ng/mL)
Give bare numbers, in ng/mL.

Query :: Given NN[11C](=O)c1ccncc1 , state its recorded concentration at 1.5 h.
Result :: 4150

====

METHOD DESCRIPTION: Biodistribution in baboon gallbladder at 170 mg, iv after 15 mins
Type: ADME, organism-based, Gall bladder
TEST CONDITIONS: papio hamadryas, read-out: Drug uptake
REPORTED PROPERTY: concentration at 0.25 h (µg/mL)
Numbers only, in µg/mL.

Query :: What concentration at 0.25 h value was documented for this compound, CO[C@H]1/C=C/O[C@@]2(C)Oc3c(C)c(O)c4cc(c(/C=N/N5CCN([11CH3])CC5)c(O)c4c3C2=O)NC(=O)/C(C)=C\C=C\C(C)[C@H](O)[C@@H](C)[C@@H](O)[C@@H](C)[C@H](OC(C)=O)[C@@H]1C (stereo partly specified) ?
Result :: 121

====

METHOD DESCRIPTION: Biodistribution in baboon kidney medulla at 170 mg, iv after 90 mins
Type: ADME, organism-based
TEST CONDITIONS: papio hamadryas, read-out: Drug uptake
REPORTED PROPERTY: concentration at 1.5 h (ng/mL)
Give bare numbers, in ng/mL.

Query :: Recorded concentration at 1.5 h of CO[C@H]1/C=C/O[C@@]2(C)Oc3c(C)c(O)c4cc(c(/C=N/N5CCN([11CH3])CC5)c(O)c4c3C2=O)NC(=O)/C(C)=C\C=C\C(C)[C@H](O)[C@@H](C)[C@@H](O)[C@@H](C)[C@H](OC(C)=O)[C@@H]1C (stereo partly specified) , please.
Result :: 9440

====

METHOD DESCRIPTION: Biodistribution in human lung at 108.7 mg, iv after 3 hrs
Assay type: ADME, organism-based
TEST CONDITIONS: read-out: Drug uptake
REPORTED PROPERTY: concentration at 3 h (ng/g)
Answers are plain numbers, in ng/g.

Query :: Can you share its concentration at 3 h? I mean this compound: CO[C@H]1/C=C/O[C@@]2(C)Oc3c(C)c(O)c4cc(c(/C=N/N5CCN([11CH3])CC5)c(O)c4c3C2=O)NC(=O)/C(C)=C\C=C\C(C)[C@H](O)[C@@H](C)[C@@H](O)[C@@H](C)[C@H](OC(C)=O)[C@@H]1C (stereo partly specified)
Result :: 1790

====

METHOD DESCRIPTION: Biodistribution in baboon kidney cortex at 340 mg, iv after 60 mins
Format: ADME, organism-based
TEST CONDITIONS: papio hamadryas, read-out: Drug uptake
REPORTED PROPERTY: concentration at 1 h (ng/mL)
Numbers only, in ng/mL.

Query :: Which concentration at 1 h reading was recorded for the compound N[11C](=O)c1cnccn1 ?
Result :: 12600

====

METHOD DESCRIPTION: Biodistribution in baboon kidney cortex at 170 mg, iv after 90 mins
Assay type: ADME, organism-based
TEST CONDITIONS: papio hamadryas, read-out: Drug uptake
REPORTED PROPERTY: concentration at 1.5 h (ng/mL)
Answers are plain numbers, in ng/mL.

Query :: Fill in: concentration at 1.5 h of CO[C@H]1/C=C/O[C@@]2(C)Oc3c(C)c(O)c4cc(c(/C=N/N5CCN([11CH3])CC5)c(O)c4c3C2=O)NC(=O)/C(C)=C\C=C\C(C)[C@H](O)[C@@H](C)[C@@H](O)[C@@H](C)[C@H](OC(C)=O)[C@@H]1C (stereo partly specified) is ___
Result :: 8190

====

METHOD DESCRIPTION: Biodistribution in baboon Liver at 170 mg, iv after 30 mins
Type: ADME, organism-based
TEST CONDITIONS: papio hamadryas, read-out: Drug uptake
REPORTED PROPERTY: concentration at 0.5 h (µg/mL)
Answers are plain numbers, in µg/mL.

Query :: Quick one: concentration at 0.5 h for CO[C@H]1/C=C/O[C@@]2(C)Oc3c(C)c(O)c4cc(c(/C=N/N5CCN([11CH3])CC5)c(O)c4c3C2=O)NC(=O)/C(C)=C\C=C\C(C)[C@H](O)[C@@H](C)[C@@H](O)[C@@H](C)[C@H](OC(C)=O)[C@@H]1C (stereo partly specified) ?
Result :: 276

====

METHOD DESCRIPTION: Biodistribution in baboon lung at 85 mg, iv after 15 mins
Format: ADME, organism-based
TEST CONDITIONS: papio hamadryas, read-out: Drug uptake
REPORTED PROPERTY: concentration at 0.25 h
Write the numeric value and append its unit.

Query :: Query (molecule): NN[11C](=O)c1ccncc1 ; field requested: concentration at 0.25 h
Result :: 7720 ng/mL

====

METHOD DESCRIPTION: Biodistribution in baboon whole brain at 340 mg, iv after 30 mins
Assay type: ADME, organism-based
TEST CONDITIONS: papio hamadryas, read-out: Drug uptake
REPORTED PROPERTY: concentration at 0.5 h
Give the number first and the unit second.

Query :: Sample N[11C](=O)c1cnccn1 — what was its concentration at 0.5 h?
Result :: 21000 ng/mL

====

METHOD DESCRIPTION: Biodistribution in baboon whole brain at 170 mg, iv after 60 mins
Type: ADME, organism-based
TEST CONDITIONS: papio hamadryas, read-out: Drug uptake
REPORTED PROPERTY: concentration at 1 h (ng/mL)
Give bare numbers, in ng/mL.

Query :: Can you share its concentration at 1 h? I mean this molecule: CO[C@H]1/C=C/O[C@@]2(C)Oc3c(C)c(O)c4cc(c(/C=N/N5CCN([11CH3])CC5)c(O)c4c3C2=O)NC(=O)/C(C)=C\C=C\C(C)[C@H](O)[C@@H](C)[C@@H](O)[C@@H](C)[C@H](OC(C)=O)[C@@H]1C (stereo partly specified)
Result :: 912

====

METHOD DESCRIPTION: Biodistribution in baboon kidney cortex at 85 mg, iv after 30 mins
Assay type: ADME, organism-based
TEST CONDITIONS: papio hamadryas, read-out: Drug uptake
REPORTED PROPERTY: concentration at 0.5 h (ng/mL)
One number for each entry, in ng/mL.

Query :: Given NN[11C](=O)c1ccncc1 , state its recorded concentration at 0.5 h.
Result :: 9260

====

METHOD DESCRIPTION: Biodistribution in baboon lung at 170 mg, iv after 90 mins
Type: ADME, organism-based
TEST CONDITIONS: papio hamadryas, read-out: Drug uptake
REPORTED PROPERTY: concentration at 1.5 h
Don't forget the unit after the number, please.

Query :: // concentration at 1.5 h lookup, key: CO[C@H]1/C=C/O[C@@]2(C)Oc3c(C)c(O)c4cc(c(/C=N/N5CCN([11CH3])CC5)c(O)c4c3C2=O)NC(=O)/C(C)=C\C=C\C(C)[C@H](O)[C@@H](C)[C@@H](O)[C@@H](C)[C@H](OC(C)=O)[C@@H]1C (stereo partly specified)
Result :: 6780 ng/mL

====

METHOD DESCRIPTION: Biodistribution in baboon Liver at 170 mg, iv after 90 mins
Format: ADME, organism-based
TEST CONDITIONS: papio hamadryas, read-out: Drug uptake
REPORTED PROPERTY: concentration at 1.5 h (µg/mL)
Give bare numbers, in µg/mL.

Query :: Query (compound): CO[C@H]1/C=C/O[C@@]2(C)Oc3c(C)c(O)c4cc(c(/C=N/N5CCN([11CH3])CC5)c(O)c4c3C2=O)NC(=O)/C(C)=C\C=C\C(C)[C@H](O)[C@@H](C)[C@@H](O)[C@@H](C)[C@H](OC(C)=O)[C@@H]1C (stereo partly specified) ; field requested: concentration at 1.5 h
Result :: 300
